The reported numbers originate from patent US20250019437A1.

# SYSTEM UNDER TEST: T1, human TREM2 (triggering receptor expressed on myeloid cells 2) (human) (UniProt Q9NZC2)
# T1 sequence (looked up): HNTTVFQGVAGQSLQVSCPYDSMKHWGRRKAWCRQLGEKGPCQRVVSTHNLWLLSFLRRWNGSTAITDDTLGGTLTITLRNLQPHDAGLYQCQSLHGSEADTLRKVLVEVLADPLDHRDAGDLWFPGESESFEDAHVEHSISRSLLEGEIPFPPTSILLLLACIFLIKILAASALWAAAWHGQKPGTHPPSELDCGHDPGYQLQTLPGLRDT
# METHOD DESCRIPTION: 2nd screen, 10 nM Ab
MEASUREMENT LABEL: Binding Signal (fold over 6E7 parental antibody) (fold)

[[record]]
binder = "6E7 antibody affinity modulation variant V5 (antibody, V domains shown) VH: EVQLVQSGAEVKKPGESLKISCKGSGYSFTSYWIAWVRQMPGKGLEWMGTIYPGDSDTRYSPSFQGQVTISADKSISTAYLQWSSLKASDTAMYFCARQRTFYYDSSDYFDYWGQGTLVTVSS VL: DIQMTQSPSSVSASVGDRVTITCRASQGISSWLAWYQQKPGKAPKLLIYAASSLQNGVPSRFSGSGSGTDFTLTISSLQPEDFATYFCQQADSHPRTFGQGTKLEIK"
readout_number = 2.84

[[record]]
binder = "6E7 antibody affinity modulation variant V38 (antibody, V domains shown) VH: EVQLVQSGAEVKKPGESLKISCKGSGYSFGSYWIAWVRQMPGKGLEWMGIIYPGDSDVRYSPSFQGQVTISADKSISTAYLQWSSLKASDTAMYFCARQRTFYYDSSDYFDYWGQGTLVTVSS VL: DIQMTQSPSSVSASVGDRVTITCRASQGISSWLAWYQQKPGKAPKLLIYAASSRQNGVPSRFSGSGSGTDFTLTISSLQPEDFATYFCQQADSHPRTFGQGTKLEIK"
readout_number = 4.36

